- Test system: PAO1 mutant MIN1_RW01_1, pmrB(Y98N)
- assayDetails: MIC, Sensititre custom plate
- Type: cell-based
- assaySetup: Pseudomonas aeruginosa, PAO1, read-out: MIC, Sensititre
Readings of MIC for the listed compounds
# output: bare number, implied unit µg/mL

As a guide, the following entries are already answered.
NCC[C@H](O)C(=O)N[C@@H]1C[C@H](N)[C@@H](O[C@H]2O[C@H](CN)[C@@H](O)[C@H](O)[C@H]2O)[C@H](O)[C@H]1O[C@H]1O[C@H](CO)[C@@H](O)[C@H](N)[C@H]1O : 4
C[C@@H](O)[C@H]1C(=O)N2C(C(=O)O)=C(S[C@@H]3CN[C@H](C(=O)N(C)C)C3)[C@H](C)[C@H]12 : 1
CC1(C)S[C@@H]2[C@H](NC(=O)[C@H](C(=O)O)c3ccsc3)C(=O)N2[C@H]1C(=O)O : 16
C[C@@H](O)[C@H]1C(=O)N2C(C(=O)O)=C(SCCN=CN)C[C@H]12 : 2

Please examine the following record next.
Query NC[C@H]1O[C@H](O[C@H]2[C@H](O)[C@@H](O[C@H]3O[C@H](CO)[C@@H](O)[C@H](N)[C@H]3O)[C@H](N)C[C@@H]2N)[C@H](N)C[C@@H]1O yields MIC of 1
